- System: HOXA9 DNA binding site
- assay overview: Inhibition of HOXA9 (unknown origin) expressed in reticulocyte lysate system binding to 32P-radiolabeled DNA Hoxa9-binding site (strand a-CTGCGATGATTTACGACCGC /strand b-GCGGTCGTAAATCATCGCAG) (unknown origin) assessed as HOXA9/DNA inhibition at 2.5 to 20 uM incubated for 20 mins by electrophoretic mobility shift assay relative to control
- Assay type: subcellular
- condition: dose 2.5-20 µM
The source made the active and inactive calls. No cut-off for these calls is given here.
Hi there, use one of these labels in your reply, thanks! true (1) = active, false (0) = inactive

# example entries with known answers
| line notation | category label |
| --- | --- |
| N=C(N)c1ccc(-c2cnc(-c3ccc(C(=N)N)cc3)o2)cc1 | false (0) |
| N=C(N)c1ccc2nc(-c3ccc(-c4ccc(C(=N)N)nc4)o3)[nH]c2c1 | false (0) |
| N=C(N)c1ccc(-c2ccc(-c3cc4ccc(C(=N)N)cc4[nH]3)o2)cc1 | true (1) |
| Cn1c(-c2ccc(-c3ccc(C(=N)N)cc3)o2)nc2cc(C(=N)N)ccc21 | false (0) |
| N=C(N)c1ccc(-c2ccc(-c3nc4cc(C(=N)N)ccc4o3)o2)cc1 | false (0) |

Request: Test call for this compound, please: `Cn1c(-c2ccc(-c3ccc(-c4nc5cc(C(=N)N)ccc5n4C)s3)cc2)nc2cc(C(=N)N)ccc21`
Result: false (0)

###

- assay overview: Induction of cell death in mouse MigA9 cells harboring mouse Hoxa9 gene assessed as propidium iodide-positive cells at 20 uM incubated for 24 hrs by propidium iodide staining based flow cytometry (reference value: 9.06 +/- 0.53%)
- Format: functional
- condition: dose 20 µM; time 24 hrs
measurement type: Activity (%)
State just the number; it will be interpreted in %.

| line notation | Activity [%] |
| --- | --- |
| N=C(N)c1ccc(-c2ccc(-c3nc4ccc(C(=N)N)cc4[nH]3)s2)cc1 | 21.07 |
| N=C(N)c1cccc(-c2ccc(-c3nc4cc(C(=N)N)ccc4[nH]3)cc2)c1 | 5.17 |
| N=C(N)c1ccc(-c2ccc(-c3nc4cc(C(=N)N)ccc4o3)o2)cc1 | 8.38 |

The compound `N=C(N)c1ccc(-c2cnc(-c3ccc(C(=N)N)cc3)s2)cc1` showed Activity equal to 5.91

###

- assay overview: Induction of cell death in mouse MigA9 cells harboring mouse Hoxa9 gene assessed as propidium iodide-positive cells at 15 uM incubated for 24 hrs by propidium iodide staining based flow cytometry (reference value: 9.06 +/- 0.53%)
- Type: functional
- condition: dose 15 µM; time 24 hrs
So basically, if Activity comes in under 6% it's 1 (yes), and if it's 6% or more it's 0 (no).

| line notation | category label |
| --- | --- |
| N=C(N)c1ccc(-c2ccc(-c3nc4ccc(C(=N)N)cc4[nH]3)s2)cc1 | 0 (no) |
| N=C(N)c1ccc(-c2ccc(-c3nc4cc(C(=N)N)ccc4o3)o2)cc1 | 0 (no) |
| N=C(N)c1cccc(-c2ccc(-c3nc4cc(C(=N)N)ccc4[nH]3)cc2)c1 | 1 (yes) |
| N=C(N)c1ccc(-c2cnc(-c3ccc(C(=N)N)cc3)s2)cc1 | 1 (yes) |

Shift focus to the following entry.
Request: Confirm or reject: Activity of `N=C(N)c1ccc(-c2ccc(-c3cc4ccc(C(=N)N)cc4[nH]3)o2)cc1` lies strictly below 6%
Result: 0 (no)

Where do these numbers come from? They come from ChEMBL document CHEMBL4813909.
